Cited source: ChEMBL document CHEMBL1138184

Test system: Rattus norvegicus
Test: Inhibitory activity against 4% NaCl-induced abdominal constriction in Sprague-Dawley rat after 30 min of 30 mg/kg, po
Assay type: functional
Details: Abdomen, 0.5 h
Listed compounds paired with reported inhibition in vivo at 30 mg/kg
Give the quantity in %, number only.

Examples from the recorded data:
compound	inhibition in vivo at 30 mg/kg, %
CC(Cc1ccc(O)c(O)c1)C(C)Cc1ccc(O)c(O)c1 (stereo unspecified) [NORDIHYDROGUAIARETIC ACID]	45.8
COC(=O)c1ccc(C(=O)C#Cc2ccc(S(C)(=O)=O)cc2)cc1	56.2
CS(=O)(=O)c1ccc(C#CC(=O)c2ccoc2)cc1	57.7
CS(=O)(=O)c1ccc(C#CC(=O)c2ccc(F)c(F)c2)cc1	50.8
CC(C)c1ccc(C(=O)C#Cc2ccc(S(C)(=O)=O)cc2)cc1	40.7

Exam item: Please report inhibition in vivo at 30 mg/kg for the following compound: CC(=O)Oc1ccccc1C(=O)O [ASPIRIN]
Marked response: 29.7

====

Consider the following pIC50 values measured on UniProt O49150.
pIC50: −log10 of the molar value.

Take a look at these entries with their results.
COc1ccc(C(=O)C#Cc2ccc(S(C)(=O)=O)cc2)c2ccccc12 < 5.00
COC(=O)c1ccc(C(=O)C#Cc2ccc(S(C)(=O)=O)cc2)cc1 < 5.00
CS(=O)(=O)c1ccc(C#CC(=O)c2ccc(F)cc2)cc1 < 5.00
COc1ccc(C(=O)C#Cc2ccc(S(C)(=O)=O)cc2)cc1OC 6.00
CS(=O)(=O)c1ccc(C#CC(=O)c2ccc(F)c(F)c2)cc1 6.40

Exam item: GET pIC50 | system: UniProt O49150 | item: `COc1cc(C(=O)C#Cc2ccc(S(C)(=O)=O)cc2)cc(OC)c1OC`
Marked response: 5.15

Exam item: Provide pIC50, recorded with UniProt O49150, of `Cc1ccc(C(=O)C#Cc2ccc(S(C)(=O)=O)cc2)cc1`
Marked response: < 5.00

Exam item: Give the observed pIC50 of `CS(=O)(=O)c1ccc(C#CC(=O)c2ccno2)cc1` for UniProt O49150.
Marked response: 5.82

====

// pIC50 collected for 5-lipoxygenase (Solanum tuberosum)
Scale: negative log10 of molar concentration, which is what pIC50 denotes.

Some solved entries appear below for comparison.
CCCc1ccc(C(=O)C#Cc2ccc(S(C)(=O)=O)cc2)cc1 5.49
CS(=O)(=O)c1ccc(C#CC(=O)c2ccc(O)cc2)cc1 6.52
CS(=O)(=O)c1ccc(C#CC(=O)c2ccoc2)cc1 7.00
CCCCc1ccc(C(=O)C#Cc2ccc(S(C)(=O)=O)cc2)cc1 5.35

Let us move to another entry and its pIC50.
Exam item: Report value: pIC50, system: 5-lipoxygenase (Solanum tuberosum), compound: `CS(=O)(=O)c1ccc(C#CC(=O)c2ccc([N+](=O)[O-])cc2)cc1`
Marked response: 5.21

====

Tested on: Rattus norvegicus
Test: Inhibitory activity against 4% NaCl-induced abdominal constriction in Sprague-Dawley rat after 30 min of 30 mg/kg, po
Format: functional
Details: Abdomen, 0.5 h
measurement-name: inhibition in vivo at 30 mg/kg (%)
API: value field is a number in %; no unit string.

Worked cases, answers included:
compound	target-under-test	measurement-name	numeric-result
COc1cc(C(=O)C#Cc2ccc(S(C)(=O)=O)cc2)ccc1O	Rattus norvegicus	inhibition in vivo at 30 mg/kg	15.4
O=C(O)/C=C/c1ccc(O)c(O)c1 [CAFFEIC ACID]	Rattus norvegicus	inhibition in vivo at 30 mg/kg	47.2
CS(=O)(=O)c1ccc(C#CC(=O)c2ccc(C(F)(F)F)cc2)cc1	Rattus norvegicus	inhibition in vivo at 30 mg/kg	38

Exam item: State its inhibition in vivo at 30 mg/kg: `COc1cc(C(=O)C#Cc2ccc(S(C)(=O)=O)cc2)cc(OC)c1OC`
Marked response: 60.2

Exam item: Report measured inhibition in vivo at 30 mg/kg; entry is `CS(=O)(=O)c1ccc(C#CC(=O)c2cccc3ccccc23)cc1`
Marked response: 56.4

Exam item: // Input: `COc1ccc(C(=O)C#Cc2ccc(S(C)(=O)=O)cc2)c2ccccc12` . Output its inhibition in vivo at 30 mg/kg only.
Marked response: 56.7

====

# collection of IC50 values tested on 5-lipoxygenase (Solanum tuberosum, UniProt O49150)
# Sequence (O49150 whole entry): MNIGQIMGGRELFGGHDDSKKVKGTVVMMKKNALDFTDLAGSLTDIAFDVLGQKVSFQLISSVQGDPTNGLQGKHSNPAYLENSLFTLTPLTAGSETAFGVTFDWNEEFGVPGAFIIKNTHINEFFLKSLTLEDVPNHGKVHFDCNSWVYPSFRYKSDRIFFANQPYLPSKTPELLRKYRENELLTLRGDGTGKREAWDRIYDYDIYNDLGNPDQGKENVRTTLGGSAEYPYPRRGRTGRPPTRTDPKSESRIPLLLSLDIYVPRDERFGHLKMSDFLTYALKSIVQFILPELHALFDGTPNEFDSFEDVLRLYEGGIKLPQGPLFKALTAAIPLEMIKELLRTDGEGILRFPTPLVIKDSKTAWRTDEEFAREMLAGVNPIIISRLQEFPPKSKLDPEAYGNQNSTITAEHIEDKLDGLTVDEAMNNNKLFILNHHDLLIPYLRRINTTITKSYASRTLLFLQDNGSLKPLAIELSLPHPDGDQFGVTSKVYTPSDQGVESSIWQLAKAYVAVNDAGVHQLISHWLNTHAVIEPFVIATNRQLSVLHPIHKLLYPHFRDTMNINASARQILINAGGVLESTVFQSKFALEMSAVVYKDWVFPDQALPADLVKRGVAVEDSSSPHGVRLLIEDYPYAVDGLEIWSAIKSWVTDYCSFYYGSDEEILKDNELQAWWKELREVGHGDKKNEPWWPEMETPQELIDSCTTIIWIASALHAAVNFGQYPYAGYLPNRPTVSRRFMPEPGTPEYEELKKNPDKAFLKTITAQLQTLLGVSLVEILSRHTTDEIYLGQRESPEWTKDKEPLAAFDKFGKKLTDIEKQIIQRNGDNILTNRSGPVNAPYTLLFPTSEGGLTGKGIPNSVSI

COc1cc(C(=O)C#Cc2ccc(S(C)(=O)=O)cc2)ccc1O > 10 µM
CS(=O)(=O)c1ccc(C#CC(=O)c2cccc(O)c2)cc1 0.3 µM
COc1cccc(C(=O)C#Cc2ccc(S(C)(=O)=O)cc2)c1 9 µM
CS(=O)(=O)c1ccc(C#CC(=O)c2ccc(C(F)(F)F)cc2)cc1 > 10 µM
COc1ccc(C(=O)C#Cc2ccc(S(C)(=O)=O)cc2)cc1 > 10 µM

From here, focus on the item given below.
Exam item: Lab note: record IC50 of `CS(=O)(=O)c1ccc(C#CC(=O)c2cccc([N+](=O)[O-])c2)cc1` tested on 5-lipoxygenase (Solanum tuberosum, UniProt O49150).
Marked response: > 10 µM

====

Molecular target: Prostaglandin G/H synthase 1 (Ovis aries, UniProt P05979)
Sequence (P05979 whole entry): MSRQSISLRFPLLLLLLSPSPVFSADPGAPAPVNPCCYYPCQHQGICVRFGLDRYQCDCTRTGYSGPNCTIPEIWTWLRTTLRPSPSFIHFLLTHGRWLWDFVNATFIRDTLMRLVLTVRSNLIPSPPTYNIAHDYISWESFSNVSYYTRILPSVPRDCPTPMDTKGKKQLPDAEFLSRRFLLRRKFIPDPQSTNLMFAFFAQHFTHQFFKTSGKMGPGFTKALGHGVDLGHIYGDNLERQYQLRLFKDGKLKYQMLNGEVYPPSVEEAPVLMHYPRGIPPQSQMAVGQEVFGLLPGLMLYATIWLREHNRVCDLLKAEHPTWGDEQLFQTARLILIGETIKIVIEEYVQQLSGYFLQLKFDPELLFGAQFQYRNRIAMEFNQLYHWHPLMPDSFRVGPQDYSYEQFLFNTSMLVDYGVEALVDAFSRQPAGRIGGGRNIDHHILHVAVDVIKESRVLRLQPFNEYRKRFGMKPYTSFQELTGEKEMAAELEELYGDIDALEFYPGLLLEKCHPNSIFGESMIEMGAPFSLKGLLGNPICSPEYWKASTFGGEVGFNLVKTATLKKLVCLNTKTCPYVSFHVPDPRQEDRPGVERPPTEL
measurement-name: IC50 (µM)
Field format: number, assumed µM, no unit text.

CS(=O)(=O)c1ccc(C#CC(=O)c2ccno2)cc1 32.2
COc1ccc(C(=O)C#Cc2ccc(S(C)(=O)=O)cc2)cc1OC 3.3
CC(C)c1ccc(C(=O)C#Cc2ccc(S(C)(=O)=O)cc2)cc1 9.2
CS(=O)(=O)c1ccc(C#CC(=O)c2cccc([N+](=O)[O-])c2)cc1 2
CSc1ccc(C(=O)C#Cc2ccc(S(C)(=O)=O)cc2)cc1 9.2
CS(=O)(=O)c1ccc(C#CC(=O)c2ccoc2)cc1 1
CS(=O)(=O)c1ccc(C#CC(=O)c2ccc([N+](=O)[O-])cc2)cc1 0.25

Exam item: Return reported IC50. Input compound: `CCCc1ccc(C(=O)C#Cc2ccc(S(C)(=O)=O)cc2)cc1`
Marked response: 3.2

====

Collected IC50 values appear next to each entry.
Molecular target: Seed linoleate 13S-lipoxygenase-1 (Glycine max, UniProt P08170)
Sequence (P08170 whole entry): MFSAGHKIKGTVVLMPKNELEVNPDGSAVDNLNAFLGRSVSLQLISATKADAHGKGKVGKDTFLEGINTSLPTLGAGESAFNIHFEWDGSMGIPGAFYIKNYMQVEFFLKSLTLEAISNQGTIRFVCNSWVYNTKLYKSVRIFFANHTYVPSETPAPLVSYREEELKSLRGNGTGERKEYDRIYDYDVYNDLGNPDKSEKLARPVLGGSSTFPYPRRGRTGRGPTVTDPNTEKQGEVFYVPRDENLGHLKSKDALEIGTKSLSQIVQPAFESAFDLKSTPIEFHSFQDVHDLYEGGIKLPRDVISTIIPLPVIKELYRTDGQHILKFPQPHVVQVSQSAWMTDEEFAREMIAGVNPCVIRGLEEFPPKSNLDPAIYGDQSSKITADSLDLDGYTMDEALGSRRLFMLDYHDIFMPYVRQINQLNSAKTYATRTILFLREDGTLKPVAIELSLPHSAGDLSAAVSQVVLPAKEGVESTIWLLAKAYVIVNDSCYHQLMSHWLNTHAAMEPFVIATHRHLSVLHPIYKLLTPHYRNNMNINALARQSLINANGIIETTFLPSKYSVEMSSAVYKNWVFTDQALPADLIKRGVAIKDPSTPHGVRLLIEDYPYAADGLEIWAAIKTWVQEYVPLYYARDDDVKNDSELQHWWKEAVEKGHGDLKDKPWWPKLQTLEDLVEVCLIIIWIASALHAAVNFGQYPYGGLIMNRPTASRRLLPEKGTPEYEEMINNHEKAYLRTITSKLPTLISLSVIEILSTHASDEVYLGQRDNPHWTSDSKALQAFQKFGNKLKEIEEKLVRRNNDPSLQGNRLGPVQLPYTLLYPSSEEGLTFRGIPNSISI

Would you please look over these solved cases?
CS(=O)(=O)c1ccc(C#CC(=O)c2ccno2)cc1 > 10 µM
CS(=O)(=O)c1ccc(C#CC(=O)c2ccoc2)cc1 > 10 µM
CS(=O)(=O)c1ccc(C#CC(=O)c2ccc([N+](=O)[O-])cc2)cc1 > 10 µM
CCCCc1ccc(C(=O)C#Cc2ccc(S(C)(=O)=O)cc2)cc1 > 10 µM
CS(=O)(=O)c1ccc(C#CC(=O)c2cccc3ccccc23)cc1 > 10 µM

Exam item: With Seed linoleate 13S-lipoxygenase-1 (Glycine max, UniProt P08170) as the test system, provide measured IC50 for this molecule: `CS(=O)(=O)c1ccc(C#CC(=O)c2ccc(S(C)(=O)=O)cc2)cc1`
Marked response: > 10 µM

Exam item: Look up and report measured IC50 (Seed linoleate 13S-lipoxygenase-1 (Glycine max, UniProt P08170)) for the following molecule: `COc1ccc(C(=O)C#Cc2ccc(S(C)(=O)=O)cc2)cc1OC`
Marked response: > 10 µM

====

pIC50: −log10 of the molar value.
Recorded pIC50 values (5-lipoxygenase (Solanum tuberosum, UniProt O49150)) are given below.

As a guide, the following entries are already answered.
CS(=O)(=O)c1ccc(C#CC(=O)c2cccc3ccccc23)cc1 < 5.00
COc1ccc(C(=O)C#Cc2ccc(S(C)(=O)=O)cc2)cc1O < 5.00

Then this molecule:
Exam item: Look up and report measured pIC50 for this entry: `CS(=O)(=O)c1ccc(C#CC(=O)c2ccc(S(C)(=O)=O)cc2)cc1`
Marked response: < 5.00
